Target: MK-3 (Homo sapiens)
Sequence (Q16644 whole entry, species assumed): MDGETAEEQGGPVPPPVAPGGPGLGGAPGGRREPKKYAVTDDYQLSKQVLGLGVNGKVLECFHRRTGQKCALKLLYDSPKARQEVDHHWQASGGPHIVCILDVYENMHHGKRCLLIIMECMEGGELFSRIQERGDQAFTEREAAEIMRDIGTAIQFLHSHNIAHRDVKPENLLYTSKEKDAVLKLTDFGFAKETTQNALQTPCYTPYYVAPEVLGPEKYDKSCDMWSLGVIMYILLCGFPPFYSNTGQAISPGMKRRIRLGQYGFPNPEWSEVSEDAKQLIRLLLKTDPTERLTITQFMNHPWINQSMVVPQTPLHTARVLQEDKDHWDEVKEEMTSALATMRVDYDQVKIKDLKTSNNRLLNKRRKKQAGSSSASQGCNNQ
Assay: MK-3 inhibition IC50 (similar method to MK-2, with appropriate modifications)
Format: biochemical
Conditions: Table 5, other cyclic pyrazole MK-2 inhibiting compounds; read-out: MK-3 Avg. IC50
pIC50: −log10 of the molar value.
Measured endpoint: pIC50

# Input smiles, Measured endpoint, Result
measured = [
    ("O=C1NCCn2nc3c(c21)CCc1cnc(/C=C/c2cccc(O)c2)cc1-3", "pIC50", 5.44),
]

Could you report pIC50 for every entry in the following list?
1. O=C1NCCn2nc3c(c21)CCc1cnc(/C=C/c2ccc4c(c2)OCO4)cc1-3
2. CCOC(=O)c1c2c(nn1CCCN)-c1cc(/C=C/c3ccccc3)ncc1CC2
3. O=C1NCCn2nc3c(c21)CCc1cnc(/C=C/c2ccc(C(F)(F)F)cc2)cc1-3
4. O=C1NCCn2nc3c(c21)CCc1cnc(/C=C/c2ccc(Cl)cc2)cc1-3
5. NCCCn1nc2c(c1C(=O)O)CCc1cnc(/C=C/c3ccccc3)cc1-2

1: < 4.70; 2: < 4.70; 3: < 4.70; 4: < 4.70; 5: 6.28

Dear colleague, could you please provide pIC50 for the compounds listed below?
1. O=C1NCCn2nc3c(c21)CCc1cnc(/C=C/c2ccc(F)c(F)c2)cc1-3
2. NCCn1nc2c(c1C(=O)O)CCc1cnc(/C=C/c3ccccc3)cc1-2
3. O=C1NCCn2nc3c(c21)CCc1cnc(/C=C/c2ccccc2F)cc1-3
4. COc1cccc(/C=C/c2cc3c(cn2)CCc2c-3nn3c2C(=O)NCC3)c1
5. O=C(O)c1c2c(nn1CCCNCCc1ccc(Br)cc1)-c1cc(/C=C/c3ccccc3)ncc1CC2

1. < 4.70
2. 5.92
3. < 3.70
4. 4.93
5. 5.69

// data source = patent US20040127492A1
